target: human CB2 receptors (Homo sapiens); construct: expressed in transfected cells; host or cells: HEK293; test: human CB2 radioligand binding assay ([3H]CP 55,940 competition); details: human CB2 (Ki, nM), HEK293 membranes, 0.5 nM [3H]CP 55,940
Sequence (P34972 whole entry): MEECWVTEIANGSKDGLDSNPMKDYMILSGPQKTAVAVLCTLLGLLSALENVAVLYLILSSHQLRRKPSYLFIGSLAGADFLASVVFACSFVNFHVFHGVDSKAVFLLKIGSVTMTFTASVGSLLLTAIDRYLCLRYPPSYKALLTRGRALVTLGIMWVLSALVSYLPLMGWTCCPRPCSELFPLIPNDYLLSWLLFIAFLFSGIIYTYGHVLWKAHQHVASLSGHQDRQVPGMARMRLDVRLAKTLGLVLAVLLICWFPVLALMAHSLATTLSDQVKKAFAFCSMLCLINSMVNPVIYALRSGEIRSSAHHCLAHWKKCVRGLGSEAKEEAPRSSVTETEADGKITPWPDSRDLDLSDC
Measurement name: Ki (nM)
Return type: number; implicit unit nM.

Consider the reported Ki for these compounds:
| Compound | Measured |
| --- | --- |
| CC1CCC(COc2ccc(C(F)(F)F)cc2C(=O)N=c2cc(C(C)(C)C)n(C)n2CC2CCCO2)O1 (single isomer, unassigned) [Example 37] | 57 |
| CC(=O)NCCOc1ccc(C(F)(F)F)cc1C(=O)/N=c1\cc(C(C)(C)C)n(C)n1CC1CCC1 | 5 |
| CN1CCC[C@H]1COc1ccc(C(F)(F)F)cc1C(=O)/N=c1\cc(C(C)(C)C)on1C[C@H]1CCCO1 | 62 |
| CC(=O)NCCOc1ccc(C(F)(F)F)cc1C(=O)/N=c1\cc(C(C)(C)C)n(C)n1C[C@H]1CCCO1 | 15 |
| CSCCCOc1ccc(C(F)(F)F)cc1C(=O)/N=c1\cc(C(C)(C)C)n(C)n1CC1CCC1 | 13 |

// next item, Ki requested
Ask: Entry C[C@H](O)[C@H](C)Oc1ccc(C(F)(F)F)cc1C(=O)/N=c1\cc(C(C)(C)C)n(C)n1C[C@H]1CCCO1 has what Ki?
Reply: 3.8

* * *

Molecular target: rat CB2 (Rattus norvegicus)
Sequence (Q9QZN9 1-360): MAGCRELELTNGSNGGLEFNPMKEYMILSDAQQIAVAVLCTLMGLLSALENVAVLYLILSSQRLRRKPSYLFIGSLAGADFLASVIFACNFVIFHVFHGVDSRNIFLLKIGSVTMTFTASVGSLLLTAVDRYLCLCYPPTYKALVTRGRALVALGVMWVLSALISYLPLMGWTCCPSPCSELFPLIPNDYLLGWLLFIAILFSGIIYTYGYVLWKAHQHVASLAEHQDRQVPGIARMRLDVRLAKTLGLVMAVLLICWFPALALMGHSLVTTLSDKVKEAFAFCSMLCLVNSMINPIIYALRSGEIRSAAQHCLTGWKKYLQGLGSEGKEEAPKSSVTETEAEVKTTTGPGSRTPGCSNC
Test: rat CB2 radioligand binding assay ([3H]CP 55,940 competition)
Set-up: expressed in transfected cells; host or cells: HEK293
Details: rat CB2 (Ki, nM), HEK293 membranes, 0.5 nM [3H]CP 55,940
Measurement name: log10 of Ki (log10 of the value in nM)
Would you kindly interpret these values as log10 of Ki expressed in nM?

Consider the reported log10 of Ki for these compounds:
| Compound | Measured |
| --- | --- |
| Cn1c(C(C)(C)C)c/c(=N\C(=O)c2cc([N+](=O)[O-])ccc2OCC(C)(C)O)n1C[C@H]1CCCO1 | 0.89 |
| Cn1c(C(C)(C)C)c/c(=N\C(=O)c2cc(C(F)(F)F)ccc2OCC2CCS(=O)(=O)C2)n1C[C@H]1CCCO1 (some centres unmarked) | 1.89 |
| CC(C)[C@H](O)COc1ccc(C(F)(F)F)cc1C(=O)/N=c1\cc(C(C)(C)C)n(C)n1C[C@H]1CCCO1 | 0.00 |

Ask: Entry Cn1c(C(C)(C)C)c/c(=N\C(=O)c2cc(C(F)(F)F)ccc2NC[C@@H]2CCCO2)n1C[C@H]1CCCO1 has what log10 of Ki?
Reply: -0.22

Ask: How about Cn1c(C(C)(C)C)c/c(=N\C(=O)c2cc(C(F)(F)F)ccc2OC[C@@H]2CCN2S(C)(=O)=O)n1CC1CC1 ?
Reply: 2.14

Ask: How about Cn1c(C(C)(C)C)c/c(=N\C(=O)c2cc(C(F)(F)F)ccc2OCCC(C)(C)O)n1C[C@H]1CCCO1 ?
Reply: 1.04

Ask: How about Cn1c(C2(C)CC2)c/c(=N\C(=O)c2cc(C(F)(F)F)ccc2OCCC(C)(C)O)n1C[C@H]1CCCO1 ?
Reply: 1.11

Ask: How about CCCCN1CC(C)(C)S/C1=N\C(=O)c1cc(C(F)(F)F)ccc1OCC(C)(C)O ?
Reply: 0.70

Ask: How about Cn1c(C(C)(C)C)c/c(=N\C(=O)c2cc(C(F)(F)F)ccc2OCC(O)CO)n1C[C@H]1CCCO1 (some centres unmarked) ?
Reply: 1.04
